- assay_system: SETD2(1434-1711) (Homo sapiens, UniProt Q9BYW2)
- Construct: SETD2 (1434-1711) Assay; catalogue N/A
- Sequence (Q9BYW2 1434-1711): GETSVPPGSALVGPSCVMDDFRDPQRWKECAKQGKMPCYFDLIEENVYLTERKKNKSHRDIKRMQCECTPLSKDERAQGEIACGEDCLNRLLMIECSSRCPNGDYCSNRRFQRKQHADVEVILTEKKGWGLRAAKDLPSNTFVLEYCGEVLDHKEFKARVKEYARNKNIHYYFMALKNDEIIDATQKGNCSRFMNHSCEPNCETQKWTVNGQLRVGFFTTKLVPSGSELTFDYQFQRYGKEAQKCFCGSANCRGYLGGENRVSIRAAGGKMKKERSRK
- protocol_notes: SETD2 (1434-1711) assay
- Assay type: biochemical
- condition_info: read-out: SETD2 (1434-1711)
value_type: IC50 (nM)

As a guide, the following entries are already answered.
Q. Which value of IC50 has been reported for Cc1ccc(F)c2cc(C(=O)Nc3cccc(N4CCC(O)(C5CCN(C)CC5)CC4)c3)[nH]c12 [compound 268] in the records?
A. 60

Q. Which value of IC50 has been reported for Cc1ccc(F)c2cc(C(=O)NC(C(N)=O)c3ccccn3)[nH]c12 (stereo not drawn) [compound 503] in the records?
A. 9700

Q. Which value of IC50 has been reported for Cc1ccc(F)c2cc(C(=O)Nc3cccc4c3cnn4C3CCN(C)CC3)[nH]c12 [compound 247] in the records?
A. 50

Q. Which value of IC50 has been reported for Cc1ccc(F)c2cc(C(=O)NC3CCCC(N4CCn5c(nnc5C(F)(F)F)C4)C3)[nH]c12 (stereo not drawn) [compound 989] in the records?
A. 100

Q. Which value of IC50 has been reported for Cc1ccc(C(=O)N2CCNCC2)cc1C(NC(=O)c1cc2cccc(C)c2[nH]1)C1CC1 (stereo not drawn) [compound 583] in the records?
A. 32400

Q. Which value of IC50 has been reported for Cc1cc(C(=O)NC2CNC2)cnc1C(NC(=O)c1cc2cccc(C)c2[nH]1)C1CC1 (stereo not drawn) [compound 535] in the records?
A. 600

Q. Which value of IC50 has been reported for CC(=O)N1CCN(c2cc(NC(=O)c3cc4c(F)ccc(C)c4[nH]3)cc(C(F)(F)F)c2)CC1 [compound 242] in the records?
A. 100

Q. Which value of IC50 has been reported for CCOC(=O)N1CCC(NC(=O)c2cc3cccc(C)c3[nH]2)CC1 [compound 628] in the records?
A. 13300

Q. Which value of IC50 has been reported for CC(=O)N(CCO)C1CCN([C@@H]2CCC[C@@H](NC(=O)c3cc4c(F)ccc(C)c4[nH]3)C2)C1 (stereo partly drawn) [compound 873] in the records?
A. 1100

Q. Which value of IC50 has been reported for Cc1ccc(F)c2cc(C(=O)Nc3cccc(N4CCN(C5CC5)c5ccccc54)c3)[nH]c12 [compound 555] in the records?
A. 9200

[P] Cc1cccc2cc(C(=O)NC3CC(=O)Nc4ccccc4C3)[nH]c12 (stereo not drawn) [compound 520]
[Q] Cc1ccc(F)c2cc(C(=O)Nc3cc(N4CCN(C)CC4)c4cnccc4c3)[nH]c12 [compound 401]
[R] CCOC(=O)CC(NC(=O)c1cc2cccc(C)c2[nH]1)c1ccccc1 (stereo not drawn) [compound 586]
Q. Ascending sort, IC50. Answer format: the labels, ordered as requested.
A. Q, P, R

[1] Cc1ccc(F)c2cc(C(=O)N[C@@H]3CCC[C@H](N4CCN(C(=O)C(C)C)CC4)C3)[nH]c12 [compound 837]
[2] Cc1ccc(F)c2cc(C(=O)Nc3cccc(N4CC[C@H](N(C)C)[C@H](F)C4)c3)[nH]c12 [compound 186]
Q. Lower value of IC50 belongs to which: 1 or 2 ? # respond with the chosen item's label
A. 1
(1: 20 nM, 2: 30 nM)

[a] Cc1ccc(F)c2cc(C(=O)Nc3cccc(N4CCC5(CCCN5CC(F)F)CC4)c3)[nH]c12 [compound 142]
[b] COC(=O)N1CCC2(CC1)CCN(c1cccc(NC(=O)c3cc4c(F)ccc(C)c4[nH]3)c1)C2 [compound 83]
Q. // max by IC50 over [ a , b ] # respond with the chosen item's label
A. a

[a] Cc1ccc(F)c2cc(C(=O)Nc3cccc(N4CC5CCCN(C)C5C4)c3)[nH]c12 (stereo not drawn) [compound 182]
[b] Cc1cccc2cc(C(=O)NC3CCOCC3)[nH]c12 [compound 505]
[c] Cc1ccc(F)c2cc(C(=O)Nc3cc(Cl)cc(CN4CCOCC4)c3)[nH]c12 [compound 333]
[d] Cc1ccc(F)c2cc(C(=O)Nc3cccc(N4CCC(N5CCN(C)CC5)CC4)c3)[nH]c12 [compound 152]
Q. Ascending sort, IC50. Answer format: the labels, ordered as requested.
A. d, a, c, b

###

- assay_system: SETD2(1434-1711) (Homo sapiens)
- Construct: SETD2 (1434-1711) Assay; catalogue N/A
- protocol_notes: SETD2 (1434-1711) assay
- Format: biochemical
- condition_info: read-out: SETD2 (1434-1711)
pIC50: −log10 of the molar value.
value_type: pIC50

Q. Which value of pIC50 has been reported for Cc1cccc2cc(C(=O)N[C@H]3CC[C@@H](CO)CC3)[nH]c12 [compound 662] in the records?
A. 4.53

[a] Cc1ccc(F)c2cc(C(=O)Nc3cccc(N4CCN(C(=O)CC#N)CC4)c3)[nH]c12 [compound 170]
[b] Cc1ccc(F)c2cc(C(=O)Nc3cccc(N4CC(F)C(N(C)C)C4)c3)[nH]c12 (stereo not shown) [compound 63]
Q. // max by pIC50 over [ a , b ] # respond with the chosen item's label
A. b
(b: 7.70, a: 7.30)

###

- assay_system: SETD2(1434-1711) (Homo sapiens)
- Construct: SETD2 (1434-1711) Assay; catalogue N/A
- protocol_notes: SETD2 (1434-1711) assay
- Format: biochemical
- condition_info: read-out: SETD2 (1434-1711)
value_type: IC50 (nM)

As a guide, the following entries are already answered.
Q. Which value of IC50 has been reported for Cc1ccc(F)c2cc(C(=O)Nc3cc(Cl)cc(N4CCC(N5CCOCC5)C4)c3)[nH]c12 (centres unmarked) in the records?
A. 10

Q. Which value of IC50 has been reported for COC(=O)CC(NC(=O)c1cc2cccc(C)c2[nH]1)c1cccc(F)c1 (centres unmarked) in the records?
A. 72000

Q. Which value of IC50 has been reported for `COCC(=O)N1CCN(c2cc(F)cc(NC(=O)c3cc4c(F)ccc(C)c4[nH]3)c2)CC1` in the records?
A. 10

Q. Which value of IC50 has been reported for `Cc1ccc(F)c2cc(C(=O)Nc3cccc([C@@H]4CC[C@@H](N(C)C)C4)c3)[nH]c12` in the records?
A. 10

Q. Which value of IC50 has been reported for `CC(=O)N1[C@H](C)CN([C@@H]2CCC[C@@H](NC(=O)c3cc4c(F)ccc(C)c4[nH]3)C2)C[C@H]1C` in the records?
A. 600

[a] Cc1cccc2cc(C(=O)Nc3cncnc3)[nH]c12
[b] Cc1cccc2cc(C(=O)Nc3cccc(N4CCN(S(=O)(=O)CCN)CC4)c3)[nH]c12
[c] CC(=O)NC1CCN([C@H]2CCC[C@@H](NC(=O)c3cc4c(F)ccc(C)c4[nH]3)C2)C1 (some centres unmarked)
Q. Ascending sort, IC50. Answer format: the labels, ordered as requested.
A. c, b, a

###

- assay_system: SETD2(1434-1711) (Homo sapiens, UniProt Q9BYW2)
- Construct: SETD2 (1434-1711) Assay; catalogue N/A
- protocol_notes: SETD2 (1434-1711) assay
- Format: biochemical
- condition_info: read-out: SETD2 (1434-1711)
pIC50: −log10 of the molar value.
value_type: pIC50

Q. Which value of pIC50 has been reported for Cc1ccc(F)c2cc(C(=O)NC3CCCC(N4CCN(C(=O)NC5CCOCC5)CC4)C3)[nH]c12 (centres unmarked) [compound 1170] in the records?
A. 5.74

Q. Which value of pIC50 has been reported for Cc1ccc(F)c2cc(C(=O)Nc3cccc(C4CNC(=O)C4)c3)[nH]c12 (centres unmarked) [compound 177] in the records?
A. 7.00

Q. Which value of pIC50 has been reported for Cc1cc(C(=O)NC2CCN(C)CC2)c(C)nc1C(NC(=O)c1cc2cccc(C)c2[nH]1)C1CC1 (centres unmarked) [compound 529] in the records?
A. 5.07

Q. Which value of pIC50 has been reported for Cc1ccc(F)c2cc(C(=O)N[C@@H]3CCC[C@@H](N4CCN5C(=O)N(C)C[C@@H]5C4)C3)[nH]c12 [compound 1127] in the records?
A. 6.40

[a] Cc1ccc(F)c2cc(C(=O)N[C@@H]3CCC[C@@H](N4CCC(=O)N(C)CC4)C3)[nH]c12 [compound 945]
[b] Cc1ccc(F)c2cc(C(=O)Nc3cccc([C@H]4CC[C@H](N(C)C)CC4)c3)[nH]c12 [compound 68]
[c] Cc1ccc(F)c2cc(C(=O)Nc3cccc(CC(N)=O)c3)[nH]c12 [compound 300]
Q. Returns the items ordered by pIC50, from maximum to minimum. Answer format: the labels, ordered as requested.
A. b, a, c
(b: 8.22, a: 7.00, c: 6.70)

[1] Cc1cccc2cc(C(=O)NC3Cc4ccccc4NC3=O)[nH]c12 (centres unmarked) [compound 699]
[2] Cc1ccc(F)c2cc(C(=O)Nc3cccc(N4CCN(C)CC4)n3)[nH]c12 [compound 344]
[3] CC(=O)N1CCN([C@H]2CCC[C@@H](NC(=O)c3cc4c(F)ccc(C)c4[nH]3)C2)C2(CC2)C1 [compound 1024]
Q. Ascending sort, pIC50. Answer format: the labels, ordered as requested.
A. 1, 2, 3
(1: 4.18, 2: 6.70, 3: 7.30)

[P] Cc1ccc(F)c2cc(C(=O)Nc3cccc(-c4cnn(C)c4)c3)[nH]c12 [compound 151]
[Q] Cc1cnc(CNC(=O)c2cc3cccc(C)c3[nH]2)cn1 [compound 723]
Q. Lower value of pIC50 belongs to which: P or Q ? # respond with the chosen item's label
A. Q
(Q: 3.93, P: 7.10)

[A] Cc1cccc2cc(C(=O)NC(C)c3ccc(-n4cncn4)cc3)[nH]c12 (centres unmarked) [compound 1155]
[B] Cc1ccc(F)c2cc(C(=O)Nc3cccc(N4CC[C@@H](N(C)C)C[C@H]4C)c3)[nH]c12 [compound 308]
[C] Cc1cccnc1C(Cc1ccccc1)NC(=O)c1cc2cccc(C)c2[nH]1 (centres unmarked) [compound 408]
[D] CC(=O)N1CCC(c2cccc(NC(=O)c3cc4c(F)ccc(C)c4[nH]3)c2)C1 (centres unmarked) [compound 73]
[E] Cc1ccc(F)c2cc(C(=O)Nc3cccc(N4CCNCC4=O)c3)[nH]c12 [compound 321]
Q. Returns the items ordered by pIC50, from maximum to minimum. Answer format: the labels, ordered as requested.
A. D, B, E, C, A
(D: 7.40, B: 7.00, E: 6.70, C: 6.40, A: 4.76)

[A] Cc1ccc(F)c2cc(C(=O)Nc3cccc([C@H]4CC[C@H](N(C)C)C4)c3)[nH]c12 [compound 264]
[B] Cc1ccc(F)c2cc(C(=O)Nc3cc(Cl)cc(N4CCC(CCCN5CCCC5)CC4)c3)[nH]c12 [compound 1158]
[C] Cc1ccc(F)c2cc(C(=O)Nc3cccc(CCO)c3)[nH]c12 [compound 341]
Q. Ascending sort, pIC50. Answer format: the labels, ordered as requested.
A. C, A, B
(C: 6.70, A: 7.70, B: 8.22)

[I] Cc1ccc(F)c2cc(C(=O)Nc3cccc(N4CC[C@@H](N(C)C)[C@@H](C)C4)c3)[nH]c12 [compound 202]
[II] CC(=O)NC1CCN([C@@H]2CCC[C@@H](NC(=O)c3cc4c(F)ccc(C)c4[nH]3)C2)C1 (some centres unmarked) [compound 834]
Q. // max by pIC50 over [ I , II ] # respond with the chosen item's label
A. I
(I: 7.70, II: 5.30)

[I] COC(=O)C[C@@H](NC(=O)c1cc2cccc(C)c2[nH]1)c1cccnc1 [compound 658]
[II] Cc1ccc(F)c2cc(C(=O)Nc3cccc(N4CCNC(=O)CC4)c3)[nH]c12 [compound 200]
[III] Cc1ccc(F)c2cc(C(=O)N[C@@H]3CCC[C@@H](N4CCn5c(cnc5C(F)(F)F)C4)C3)[nH]c12 [compound 994]
Q. Ascending sort, pIC50. Answer format: the labels, ordered as requested.
A. I, III, II

[1] Cc1ccc(F)c2cc(C(=O)Nc3cc(Cl)cc(N4CCC(CCCN)CC4)c3)[nH]c12 [compound 246]
[2] Cc1ccc(F)c2cc(C(=O)NC3CCCC(N4CCN(C(=O)C(C)C)C(C(F)(F)F)C4)C3)[nH]c12 (centres unmarked) [compound 1172]
[3] Cc1ccc(NC(=O)c2cc3cccc(C)c3[nH]2)cc1CN1CCOCC1 [compound 456]
[4] Cc1ccc(F)c2cc(C(=O)Nc3cccc(N4CCCS4(=O)=O)c3)[nH]c12 [compound 125]
[5] Cc1ccc(F)c2cc(C(=O)Nc3cc(F)cc([C@H]4CC[C@H](N(C)C)CC4)c3)[nH]c12 [compound 313]
Q. Ascending sort, pIC50. Answer format: the labels, ordered as requested.
A. 2, 3, 4, 5, 1
(2: 5.51, 3: 5.85, 4: 7.10, 5: 7.52, 1: 8.05)
